# Test system: UACC-257 melanoma
# experiment-notes: NCI-60 one-dose screen, 48 h
# assay-context: 10 µM unless noted
This is part of a sample that, as a whole, favours compounds with a hit. Of some 83,000 tested, about 20% had one in any assay. The source made the active and inactive calls. How the source made its calls: active means growth percent below 10; inactive means the rest.
Please reply with one of these outcomes: active, inactive

• NN=C(c1ccc(Cl)cc1)c1ccc(Cl)cc1 = inactive
• COc1cc(C(=O)NNC(=O)c2ccccc2O)cc(OC)c1OC = inactive
• CCOC(=O)C1=C(N)Oc2cc(OC)ccc2C1c1ccc(F)c(F)c1 (stereo not given) = inactive
• O=[N+]([O-])c1ccc(NS(=O)(=O)c2cc(Cl)ccc2Cl)c2ccccc12 = inactive
• COc1cc(NS(=O)(=O)c2ccc(N)cc2)ncn1 = inactive
• O=C1c2ccccc2OC=C(c2ccccc2)N1CCCCN1CCCCC1 = inactive
• COc1ccc(-c2nnc(SCC(=O)Nc3ccc(C(=O)/C=C/c4ccc(Cl)cc4)cc3)o2)cc1OC = inactive
• COc1cccc(C2CC(c3cc(OC)c(OC)c(OC)c3)=NN2)c1 (stereo not given) = inactive

Identify the outcome logged in this assay for the molecule shown: CCN(CC)CC(=O)Nc1c(C)cccc1C
inactive

Identify the outcome logged in this assay for the molecule shown: O=C(COc1ccc(Cl)cc1)N1CCN(Cc2ccc3c(c2)OCO3)CC1
inactive

Identify the outcome logged in this assay for the molecule shown: CCCCCCCC(=O)SCC/C=C/[C@@H]1CC(=O)NCc2nc(cs2)C2=N[C@@](C)(CS2)C(=O)N[C@@H](C(C)C)C(=O)N1
active

Identify the outcome logged in this assay for the molecule shown: COc1cc(-c2nc3ccccc3s2)ccc1OCc1nc2n(n1)S(=O)(=O)c1ccccc1N2c1ccccc1
inactive

Identify the outcome logged in this assay for the molecule shown: NS(=O)(=O)c1ccc(Nc2nc(O)c(/C=C3\C=Nc4ccccc43)s2)cc1
inactive

Identify the outcome logged in this assay for the molecule shown: O=C(Nc1cccc([N+](=O)[O-])c1)c1ccc2ccccc2c1O
inactive

Identify the outcome logged in this assay for the molecule shown: CN(C)c1ccc2cc(-c3nc4ccccc4s3)c(N)nc2c1
inactive

Identify the outcome logged in this assay for the molecule shown: C=C(C)[C@@H]1C/C=C(\COC(=O)[C@H](OC(C)=O)C(NC(=O)c2ccccc2)c2ccccc2)CC[C@H]2O[C@]2(C)CC/C=C(\C)CC1 (stereo not given in full)
inactive

Identify the outcome logged in this assay for the molecule shown: Cc1ccc(Cn2cc(COc3ccc4c5ccnc(C)c5n(CCCc5ccccc5)c4c3)nn2)cc1
inactive

Identify the outcome logged in this assay for the molecule shown: COc1cc(C(=O)N2CCN(C(=O)c3cc(OC)c(OCc4ccccc4)cc3N)CC2)c(N)cc1OCc1ccccc1
inactive

Identify the outcome logged in this assay for the molecule shown: CCCCNC(=O)Oc1ccc(/C(=C(/CC)Cc2ccccc2)c2ccc(OCCCN(C)C)cc2)cc1
inactive

Identify the outcome logged in this assay for the molecule shown: Cc1cccc[n+]1CCC[n+]1ccccc1C
inactive

* * *

# System: MALME-3M melanoma
# experiment-notes: NCI-60 one-dose screen, 48 h (100 = growth as untreated, 0 = no growth, -100 = all killed)
# assay-context: 10 µM unless noted
The panel holds about 83,000 compounds, 20% with a hit somewhere; the sample as a whole holds those more often.
Mark N for growth values under 80%, and Y for everything at or above.

Threshold query (growth >= 80%) on CN(C)c1ccc(/C=N/N=C(N)N)cc1
N

Threshold query (growth >= 80%) on COc1ccc(-c2coc3c(CO)c(O)ccc3c2=O)cc1
N

Threshold query (growth >= 80%) on CC(CN(C)C)CN1c2ccccc2CCc2ccccc21 (stereo not given)
Y

Threshold query (growth >= 80%) on COc1cc2nc(C(=O)N3CCCCC3)cc(Nc3ccccc3)c2cc1OC
Y

Threshold query (growth >= 80%) on N#Cc1c(N)nc2c(c1N)C(c1ccc(Cl)cc1)C1=C(CCCC1=O)N2c1sc2c(c1C#N)CCCC2 (stereo not given)
Y

Threshold query (growth >= 80%) on CS(=O)(=O)OCC(COS(C)(=O)=O)C(c1ccccc1)c1ccccc1
Y

Threshold query (growth >= 80%) on COc1ccc(NC(=O)COCCOCCNC[C@@H]2C(=O)O[C@H]3[C@H]2CC/C(COC(=O)OC/C2=C/CC[C@@]4(C)O[C@H]4[C@H]4OC(=O)[C@@H](CN(C)C)[C@@H]4CC2)=C\CC[C@@]2(C)O[C@@H]32)c(O)c1C(N)=O
N

Threshold query (growth >= 80%) on COc1ccc(/C=C2/C(=O)Nc3cc(Cl)c(-c4csc(N)n4)cc32)cc1
N

* * *

# System: SK-MEL-28 melanoma
# experiment-notes: NCI-60 one-dose screen, 48 h (100 = growth as untreated, 0 = no growth, -100 = all killed)
# assay-context: 10 µM unless noted
This is part of a sample that, as a whole, favours compounds with a hit. Of some 83,000 tested, about 20% had one in any assay.
property-label: growth (%)
Give the value, in units of %, as a plain number.

In the examples that follow, each entry is paired with its recorded growth.
- Cc1ccc2c(c1)Nc1ccc(C)cc1C2(C)C: 105
- CN(C)c1ccc2cc(-c3nc4ccccc4s3)c(N)nc2c1: 98.3
- O=C1c2ccccc2OC=C(c2ccccc2)N1CCCCN1CCCCC1: 87.3
- COc1cc(NS(C)(=O)=O)ccc1Cc1c2ccccc2nc2ccccc12: 50.7
- Cc1c(C(C)(C)C)cc(C(C)(C)C)c2c1CN(C)CO2: 102
- O=C(C[n+]1ccccc1Cl)c1ccc2c(c1)CCCC2: 105
- COC(=O)c1ccc2c(c1)Oc1ccc(Cl)cc1-c1cc(C)nn1-2: 106
- O=C(Cn1c2ccccc2c2ccncc21)N/N=C\c1ccc2ccccc2c1: 58.3
- CC(C(=O)O)N1C(N)=NNC1c1ccccc1O (configuration not stated): 106
- COc1cc(/C=C/C(=O)N2CCC=CC2=O)cc(OC)c1OC: 56

Sure, the documented growth for CCN(CC)CCC(C(=O)O)(c1ccccc1)c1ccccc1 is 109

Sure, the documented growth for Nc1ccc(S(=O)(=O)Nc2ccnn2-c2ccccc2)cc1 is 119

* * *

# Tested on: SK-OV-3 ovarian
# experiment-notes: NCI-60 one-dose screen, 48 h (100 = growth as untreated, 0 = no growth, -100 = all killed)
# assay-context: 10 µM unless noted
Compounds without any hit were thinned out: in the full panel of roughly 83,000, 20% have a hit.
Mark Not satisfied for growth values under 80%, and Satisfied for everything at or above.

Use these answered entries as a reference point.
• COc1cc2c(/C=C3/C(=O)Nc4ccc(O)cc43)c(Cl)n(Cc3cc(OC)c(OC)c(OC)c3)c2cc1C = Not satisfied
• CCOc1ccc(-n2c(-c3cc(OC)c(OC)c(OC)c3)nnc2-c2ccc(OC)cc2N)cc1 = Not satisfied

Threshold query (growth >= 80%) on Nc1ncnc2c1c(-c1ccc(Oc3ccccc3)cc1)nn2C[C@@H]1SSC[C@H]1O
Not satisfied

Threshold query (growth >= 80%) on O=C(O)c1ccc(-n2cc(/C=N/Nc3ccccc3F)c(-c3ccc(O)cc3)n2)cc1
Satisfied

Threshold query (growth >= 80%) on COc1ccc2c(c1)O/C(=C/c1ccc(OCC(=O)Nc3ccc(S(N)(=O)=O)cc3)cc1)C2=O
Satisfied

Threshold query (growth >= 80%) on C/C(=N/O)c1ccc(NC(=O)Cn2nc(-c3ccc(Cl)cc3)nc2N)cc1
Not satisfied

Threshold query (growth >= 80%) on COC1OCC(OS(=O)(=O)c2ccc(C)cc2)C(OC(=O)c2ccccc2)C1OC(=O)c1ccccc1 (stereo not given)
Satisfied

Threshold query (growth >= 80%) on Nc1ncnc2c1ccn2-c1cccc(NC(=O)c2cccc(C(F)(F)F)c2)c1
Satisfied

Threshold query (growth >= 80%) on CN(C)CC/C=C1\c2ccccc2Sc2ccc(Cl)cc21
Not satisfied

Threshold query (growth >= 80%) on O=C(COc1ccc(Cl)cc1)N1CCN(Cc2ccc3c(c2)OCO3)CC1
Satisfied

* * *

# Test system: SF-268 CNS
# experiment-notes: NCI-60 one-dose screen, 48 h
# assay-context: 10 µM unless noted
This is part of a sample that, as a whole, favours compounds with a hit. Of some 83,000 tested, about 20% had one in any assay. Activity calls are given as the source filed them. Rule for the calls: active = growth percent below 10; inactive = the rest.
Please reply with one of these outcomes: active, inactive

Use these answered entries as a reference point.
• COc1cc2nc(C(=O)N3CCCCC3)cc(Nc3ccccc3)c2cc1OC = inactive
• Cn1c2ccccc2c2ssc(=S)c21 = inactive
• NCC(=O)NS(=O)(=O)OC[C@H]1O[C@@H](n2cnc3c(N)ncnc32)[C@H](O)[C@@H]1O = active
• CSc1nc(N)nc2c1ncn2C = inactive

Identify the outcome logged in this assay for the compound shown: CC(C)CCC[C@@H](C)[C@H]1CC[C@H]2[C@@H]3CC=C4N(c5ccccc5)C(=O)CC[C@]4(C)[C@H]3CC[C@]12C
inactive

Identify the outcome logged in this assay for the compound shown: O=C(Nc1cccc([N+](=O)[O-])c1)Nc1cccc([N+](=O)[O-])c1
inactive

Identify the outcome logged in this assay for the compound shown: CCCCn1c(-c2cccc(OC)c2)nc2cc(OC)c(OC)cc2c1=O
inactive
